Recorded values, source ChEMBL document CHEMBL3885861.

Organism: Rattus norvegicus
experiment.description: Open TG-GATES - Regimen: Daily Repeat
Type: toxicity, organism-based, Sprague-Dawley
Parameters: regimen Daily Repeat, gender Male, age 6 weeks
applied.conditions: in vivo, po, 300 mg/kg, 72 h, tissue Plasma, route gavage, dose level Middle, time 3 day
attribute.measured: A/G

compound	attribute.measured	observed.value
COC1=CC(=O)C[C@@H](C)[C@]12Oc1c(Cl)c(OC)cc(OC)c1C2=O	A/G	1.6
NC(N)=Nc1nc(CSCCC(N)=NS(N)(=O)=O)cs1	A/G	1.7
CCOC(=O)CCC(=O)O[C@H]1[C@H](O[C@@H]2[C@@H](C)[C@H](O[C@H]3C[C@@](C)(OC)[C@@H](O)[C@H](C)O3)[C@@H](C)C(=O)O[C@H](CC)[C@@](C)(O)[C@H](O)[C@@H](C)C(=O)[C@H](C)C[C@@]2(C)O)O[C@H](C)C[C@@H]1N(C)C [ERYTHROMYCIN ETHYLSUCCINATE]	A/G	1.2
CCOc1ccc(NC(=O)CC(C)O)cc1 (centres undefined)	A/G	0.9

----------
Measured Ht accompanies every entry in the list below.
Species: Rattus norvegicus
experiment.description: Open TG-GATES - Regimen: Daily Repeat
Assay type: toxicity, organism-based, Sprague-Dawley
Design: regimen Daily Repeat, gender Male, age 6 weeks
applied.conditions: in vivo, po, 0 mg/kg, 72 h, tissue Blood, route gavage, dose level Control, time 3 day

molecule	Ht, %
CN(C)CCCN1c2ccccc2CCc2ccccc21 [IMIPRAMINE]	40.6
COC1=CC(=O)C[C@@H](C)[C@]12Oc1c(Cl)c(OC)cc(OC)c1C2=O [GRISEOFULVIN]	38
CCCNC(=O)NS(=O)(=O)c1ccc(Cl)cc1 [CHLORPROPAMIDE]	40.3
CCOC(=O)CCC(=O)O[C@H]1[C@H](O[C@@H]2[C@@H](C)[C@H](O[C@H]3C[C@@](C)(OC)[C@@H](O)[C@H](C)O3)[C@@H](C)C(=O)O[C@H](CC)[C@@](C)(O)[C@H](O)[C@@H](C)C(=O)[C@H](C)C[C@@]2(C)O)O[C@H](C)C[C@@H]1N(C)C [ERYTHROMYCIN ETHYLSUCCINATE]	39.6

----------
Species on record: Rattus norvegicus
experiment.description: Open TG-GATES - Regimen: Single
Type: toxicity, organism-based, Sprague-Dawley
Parameters: regimen Single, gender Male, age 6 weeks
applied.conditions: in vivo, po, 10 mg/kg, 24 h, tissue Plasma, route gavage, dose level Low
Recorded ALT, one value per entry.
attribute.measured: ALT

molecule	observed.value
CN(C)CCCN1c2ccccc2CCc2ccc(Cl)cc21	42.6 IU/L
CN(C)CCN(Cc1cccs1)c1ccccn1	42.2 IU/L
CC1=C(/C=C/C(C)=C/C=C/C(C)=C/CO)C(C)(C)CCC1	44.6 IU/L
CC(C)OC(=O)C(C)(C)Oc1ccc(C(=O)c2ccc(Cl)cc2)cc1 [FENOFIBRATE]	49.2 IU/L
CN(C)CCCN1c2ccccc2CCc2ccccc21	48.6 IU/L

----------
Organism: Rattus norvegicus
experiment.description: Open TG-GATES - Regimen: Daily Repeat
Assay type: toxicity, organism-based, Sprague-Dawley
Set-up: regimen Daily Repeat, gender Male, age 6 weeks
applied.conditions: in vivo, po, 300 mg/kg, […], tissue Kidney, route gavage, dose level Middle, time 7 day
// reported KIDNEY_TOTAL for each item listed

molecule	KIDNEY_TOTAL [g]
CCOC(=O)CCC(=O)O[C@H]1[C@H](O[C@@H]2[C@@H](C)[C@H](O[C@H]3C[C@@](C)(OC)[C@@H](O)[C@H](C)O3)[C@@H](C)C(=O)O[C@H](CC)[C@@](C)(O)[C@H](O)[C@@H](C)C(=O)[C@H](C)C[C@@]2(C)O)O[C@H](C)C[C@@H]1N(C)C [ERYTHROMYCIN ETHYLSUCCINATE]	2.2
COc1ccc2[nH]c([S+]([O-])Cc3ncc(C)c(OC)c3C)nc2c1 (stereo not given) [OMEPRAZOLE]	2.2
NC(N)=Nc1nc(CSCCC(N)=NS(N)(=O)=O)cs1 [FAMOTIDINE]	2.3
CCOc1ccc(NC(=O)CC(C)O)cc1 (stereo not given) [BUCETIN]	2.3
COC1=CC(=O)C[C@@H](C)[C@]12Oc1c(Cl)c(OC)cc(OC)c1C2=O [GRISEOFULVIN]	2.2
